Source: patent US20190031665A1

targetUnderTest: human indoleamine 2,3-dioxygenase 1 (hIDO1) (Homo sapiens, UniProt P14902)
Construct: His tag (N); purchased BPS Bioscience, San Diego, Calif., USA; host or cells: E. coli
Sequence (P14902 whole entry): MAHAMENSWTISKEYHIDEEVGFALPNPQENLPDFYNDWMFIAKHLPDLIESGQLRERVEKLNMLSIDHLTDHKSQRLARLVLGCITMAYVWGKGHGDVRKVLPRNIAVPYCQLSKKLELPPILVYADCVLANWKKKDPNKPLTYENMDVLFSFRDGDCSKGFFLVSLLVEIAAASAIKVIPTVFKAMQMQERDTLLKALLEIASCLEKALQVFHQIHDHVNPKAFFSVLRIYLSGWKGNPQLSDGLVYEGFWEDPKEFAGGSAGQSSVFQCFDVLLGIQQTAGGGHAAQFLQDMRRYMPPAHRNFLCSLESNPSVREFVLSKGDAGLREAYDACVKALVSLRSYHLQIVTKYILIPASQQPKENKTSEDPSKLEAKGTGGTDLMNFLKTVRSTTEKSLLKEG
methodSummary: In-vitro human indoleamine 2,3-dioxygenase 1 (IDO1) enzyme assay
Format: biochemical
cond: hIDO1 enzyme at 1.0 μM concentration
# inhibition at 1 µM per record follows
measuredQuantity: inhibition at 1 µM

| molecule | result |
| --- | --- |
| COC(=O)[C@H]1CC[C@@H]([C@@H](O)CC2C(c3ccccc3)=C(C)c3cncn32)CC1 (some centres unmarked) | ≥ 50% |
| CC1=C(c2ccccc2)C(CC(=O)C2CCC(C(=O)Nc3ccncc3)CC2)n2cncc21 (centres unmarked) | ≥ 50% |
| CC1=C(c2ccccc2)C(CC(O)C2CCN(S(=O)(=O)C3CCCCC3)CC2)n2cncc21 (centres unmarked) | ≥ 50% |
| CC1=C(c2ccccc2)C(CC(=O)c2ccc(Oc3ccccc3)cc2)n2cncc21 (centres unmarked) | ≥ 50% |
| CC1=C(c2ccccc2)C(C[C@H](O)C2CCC(C(=O)Nc3ccc(Cl)cc3C)CC2)n2cncc21 (some centres unmarked) | ≥ 50% |
| CC1=C(c2ccccc2)C(CC(=O)c2ccc(N(C)C)cc2)n2cncc21 (centres unmarked) | ≤ 50% |
| CC1=C(c2ccccc2)C(CC(=O)C2CCOCC2)n2cncc21 (centres unmarked) | ≤ 50% |
| CC1=C(c2ccccc2)C(CC(=O)C2CCC(O)CC2)n2cncc21 (centres unmarked) | ≤ 50% |

* * *

Below, each entry is listed with its recorded inhibition at 1 µM.
targetUnderTest: human tryptophan 2,3-dioxygenase (hTDO) (Homo sapiens)
Construct: His tag (N); purchased BPS Bioscience, San Diego, Calif., USA; host or cells: E. coli
Sequence (P48775 whole entry): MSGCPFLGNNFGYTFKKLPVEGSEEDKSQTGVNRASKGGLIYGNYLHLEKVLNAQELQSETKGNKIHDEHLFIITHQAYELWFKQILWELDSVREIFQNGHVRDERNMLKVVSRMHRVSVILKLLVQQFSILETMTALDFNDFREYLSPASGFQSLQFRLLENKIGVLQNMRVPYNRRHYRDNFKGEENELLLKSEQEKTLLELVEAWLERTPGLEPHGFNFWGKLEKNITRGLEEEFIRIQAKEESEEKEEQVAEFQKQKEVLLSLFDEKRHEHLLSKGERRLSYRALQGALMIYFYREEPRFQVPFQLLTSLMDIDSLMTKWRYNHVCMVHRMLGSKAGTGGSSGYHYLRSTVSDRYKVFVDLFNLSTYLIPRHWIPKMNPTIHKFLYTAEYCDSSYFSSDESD
methodSummary: In-vitro human tryptophan 2,3-dioxygenase (TDO) enzyme assay
Type: biochemical
cond: hTDO enzyme at 1.0 μM concentration

| compound | inhibition at 1 µM |
| --- | --- |
| CC1=C(c2ccccc2)C(CC(=O)c2ccc(C(=O)Nc3ccc(C)cc3C)cc2)n2cncc21 (centres unmarked) | ≥ 50% |
| CC1=C(c2ccccc2)C(CC(F)C2CCCCC2)n2cncc21 (centres unmarked) | ≥ 50% |
| CC1=C(c2ccccc2)C(CC(=O)c2ccc(-c3ccccc3)cc2)n2cncc21 (single isomer, unassigned; isomer-i) [Example 42] | ≥ 50% |
| CC1=C(c2ccccc2)C(CC(O)C2CCN(C(=O)c3ccnc(C)c3)CC2)n2cncc21 (centres unmarked) | ≤ 50% |
| CC1=C(c2ccccc2)C(CC(=O)c2cccc(-c3ccccc3)c2)n2cncc21 (centres unmarked) | ≤ 50% |
| CC1=C(c2ccccc2C)C(CC(O)C2CCCCC2)n2cncc21 (centres unmarked) | ≤ 50% |
| CC1=C(c2ccc(C)cc2)C(CC(=O)C2CCCCC2)n2cncc21 (centres unmarked) | ≥ 50% |
| CC1=C(c2ccccc2)C(CC(=O)C2CCC(=NO)CC2)n2cncc21 (centres unmarked) | ≥ 50% |
| CC1=C(c2ccccc2)C(CC(O)C2CCN(S(=O)(=O)C3CCCCC3)CC2)n2cncc21 (centres unmarked) | ≥ 50% |
| OC(CC1C(c2ccccc2)=C(c2ccccc2)c2cncn21)C1CCCCC1 (centres unmarked) | ≤ 50% |
| CC1=C(c2ccccc2)C(CC(=O)c2ccc(F)c(Cl)c2)n2cncc21 (centres unmarked) | ≥ 50% |
| CC1=C(c2ccccc2)C(CC(=O)c2cccc(-c3ccccc3F)c2)n2cncc21 (centres unmarked) | ≥ 50% |
| CC1=C(c2ccccc2)C(CC(=O)c2cccc(Br)c2)n2cncc21 (centres unmarked) | ≥ 50% |
| CC1=C(c2ccccc2)C(CC(=O)c2ccc(C(=O)Nc3ccc(F)cc3F)cc2)n2cncc21 (centres unmarked) | ≥ 50% |
| CC1=C(c2ccccc2)C(CC(=O)c2ccc(-c3ccncc3)cc2)n2cncc21 (centres unmarked) | ≥ 50% |
| CC1=C(c2ccccc2)C(CC(=O)c2ccc(N(C)C)cc2)n2cncc21 (centres unmarked) | ≥ 50% |
| CC1=C(c2ccccc2)C(CC(=O)c2ccc(Br)cc2)n2cncc21 (centres unmarked) | ≥ 50% |
